From: ChEMBL document CHEMBL1152576

# Test system: Enterococcus faecalis
# EXPERIMENTAL DETAILS: Antimicrobial activity against Enterococcus faecalis ATCC 29212 assessed clear zone in inhibition per disk by CLSI disk diffusion susceptibility assay
# Type: functional
QUANTITY MEASURED: MIC (µg)
Record the value in µg, omitting the unit from your answer.

# STRUCTURE NOTATION, OBSERVED MEASUREMENT
records = [
    ("COc1cc(/C=C/[N+](=O)[O-])cc(OC)c1O", 50),
    ("O=[N+]([O-])/C=C/c1ccc(OP(=O)(OCc2ccccc2)OCc2ccccc2)cc1", 6.25),
    ("COc1cc(/C=C/[N+](=O)[O-])cc(OC)c1", 12.5),
]

Supply reported MIC belonging to this compound: COc1ccc(/C=C/[N+](=O)[O-])cc1
50

* * *

# Tested on: Enterobacter cloacae
# EXPERIMENTAL DETAILS: Antimicrobial activity against Enterobacter cloacae ATCC 13047 assessed clear zone in inhibition per disk by CLSI disk diffusion susceptibility assay
# Type: functional
Measured MIC accompanies every entry in the list below.

Worked examples, 6 molecules total:
# STRUCTURE NOTATION, MIC
data = [
    ("CCOc1ccc(/C=C/[N+](=O)[O-])cc1", ">100 µg"),
    ("COc1cc(/C=C/[N+](=O)[O-])cc(OC)c1O", ">100 µg"),
    ("COc1ccc(/C=C/[N+](=O)[O-])cc1", "12.5 µg"),
    ("COc1cc(/C=C/[N+](=O)[O-])cc(OC)c1OC", ">100 µg"),
    ("O=[N+]([O-])/C=C/c1ccccc1O", "25 µg"),
    ("COc1cc(/C=C/[N+](=O)[O-])cc(OC)c1", ">100 µg"),
]

Supply reported MIC belonging to this molecule: COc1ccc(/C=C/[N+](=O)[O-])cc1OP(=O)([O-])[O-].[Na+].[Na+]
>100 µg

Supply reported MIC belonging to this molecule: COc1cc(OC)c(/C=C/[N+](=O)[O-])c(OC)c1
>100 µg

Supply reported MIC belonging to this molecule: COc1cc(/C=C/[N+](=O)[O-])ccc1OCc1ccccc1
>100 µg

Supply reported MIC belonging to this molecule: COc1cc(/C=C/[N+](=O)[O-])c(OC)c(OC)c1OC
>100 µg

Supply reported MIC belonging to this molecule: COc1cc(/C=C/[N+](=O)[O-])ccc1O
>100 µg

Supply reported MIC belonging to this molecule: O=[N+]([O-])/C=C/c1ccc(OP(=O)(OCc2ccccc2)OCc2ccccc2)cc1
>100 µg

Supply reported MIC belonging to this molecule: CC(=O)Nc1ccc(/C=C/[N+](=O)[O-])cc1
>100 µg

Supply reported MIC belonging to this molecule: O=[N+]([O-])/C=C/c1ccc2c(c1)OCO2
12.5 µg

Supply reported MIC belonging to this molecule: COc1ccc(/C=C/[N+](=O)[O-])cc1OP(=O)(OCc1ccccc1)OCc1ccccc1
>100 µg

Supply reported MIC belonging to this molecule: COc1cc(/C=C/[N+](=O)[O-])cc(O[Si](C)(C)C(C)(C)C)c1OC
>100 µg

Supply reported MIC belonging to this molecule: COc1cc(/C=C/[N+](=O)[O-])cc2c1OCO2
>100 µg

Supply reported MIC belonging to this molecule: O=[N+]([O-])/C=C/c1ccc(O)cc1
25 µg
